Target entity: GRP94 (Sus scrofa)
Assay summary: [3H]-NECA competitive displacement assay
Assay type: binding, porcine
Parameters: GRP94 was purified from porcine pancreas rough microsomes; from tissue; host or cells: porcine pancreas rough microsomes
Condition context: 10 mM Mg(OAc)2 vs nominal endogenous magnesium
Measure name: effect of excess Mg2+ on binding to GRP94

Please review the entries below; each comes with its answer.
1. CCNC(=O)[C@H]1O[C@@H](n2cnc3c(N)ncnc32)[C@H](O)[C@@H]1O ... without effect
2. Nc1ncnc2c1ncn2[C@@H]1O[C@H](CO)[C@@H](O)[C@H]1O ... without effect
3. Nc1ncnc2c1ncn2[C@@H]1O[C@H](COP(=O)(O)OP(=O)(O)O)[C@@H](O)[C@H]1O ... markedly stimulated
4. Nc1ncnc2c1ncn2[C@@H]1O[C@H](COP(=O)(O)O)[C@@H](O)[C@H]1O ... markedly stimulated

Then there is this compound:
QUERY: Any idea what its effect of excess Mg2+ on binding to GRP94 is? The compound is Nc1ncnc2c1ncn2[C@@H]1O[C@H](COP(=O)(O)OP(=O)(O)OP(=O)(O)O)[C@@H](O)[C@H]1O
RESULT: markedly stimulated

====

Target entity: GRP94 (Sus scrofa, UniProt Q29092)
Sequence (Q29092 22-804): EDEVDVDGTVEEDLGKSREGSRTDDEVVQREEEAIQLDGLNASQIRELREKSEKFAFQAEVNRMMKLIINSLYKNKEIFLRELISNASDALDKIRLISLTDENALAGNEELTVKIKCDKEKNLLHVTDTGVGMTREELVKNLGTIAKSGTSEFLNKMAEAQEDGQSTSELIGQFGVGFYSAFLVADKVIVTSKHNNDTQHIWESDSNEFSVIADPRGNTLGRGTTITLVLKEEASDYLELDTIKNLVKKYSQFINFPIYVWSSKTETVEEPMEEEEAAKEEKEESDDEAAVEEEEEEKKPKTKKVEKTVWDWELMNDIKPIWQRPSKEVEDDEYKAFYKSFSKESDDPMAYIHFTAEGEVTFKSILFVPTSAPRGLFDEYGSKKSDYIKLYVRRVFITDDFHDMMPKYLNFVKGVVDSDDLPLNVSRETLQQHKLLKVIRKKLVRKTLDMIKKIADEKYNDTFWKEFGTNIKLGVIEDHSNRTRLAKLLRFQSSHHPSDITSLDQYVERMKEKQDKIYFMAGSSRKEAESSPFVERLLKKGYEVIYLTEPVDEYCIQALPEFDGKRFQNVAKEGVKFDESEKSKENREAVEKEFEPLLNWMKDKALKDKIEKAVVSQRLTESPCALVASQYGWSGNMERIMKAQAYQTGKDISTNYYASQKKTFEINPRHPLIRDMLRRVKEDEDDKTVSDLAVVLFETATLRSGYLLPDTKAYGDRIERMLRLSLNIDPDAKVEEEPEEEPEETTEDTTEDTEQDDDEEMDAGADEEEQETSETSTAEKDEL
Assay summary: [3H]-NECA competitive displacement assay
Type: binding, porcine
Design: GRP94 was purified from porcine pancreas rough microsomes; from tissue; host or cells: porcine pancreas rough microsomes
Condition context: competitors all at 50 μM, 20 nM [3H]-NECA
Measure name: nucleoside base specificity: binding by [3H]-NECA competitive displacement

Please review the entries below; each comes with its answer.
1. Nc1ncnc2c1ncn2[C@@H]1O[C@H](COP(=O)(O)OP(=O)(O)OP(=O)(O)O)[C@@H](O)[C@H]1O ... could bind
2. Nc1ncnc2c1ncn2[C@H]1C[C@H](O)[C@@H](COP(=O)(O)OP(=O)(O)OP(=O)(O)O)O1 ... could bind
3. O=c1ccn([C@@H]2O[C@H](COP(=O)(O)OP(=O)(O)OP(=O)(O)O)[C@@H](O)[C@H]2O)c(=O)[nH]1 ... little to no binding
4. Nc1nc2c(ncn2[C@@H]2O[C@H](COP(=O)(O)OP(=O)(O)OP(=O)(O)O)[C@@H](O)[C@H]2O)c(=O)[nH]1 ... little to no binding

Then there is this molecule:
QUERY: Any idea what its nucleoside base specificity: binding by [3H]-NECA competitive displacement is? The molecule is Nc1ccn([C@@H]2O[C@H](COP(=O)(O)OP(=O)(O)OP(=O)(O)O)[C@@H](O)[C@H]2O)c(=O)n1
RESULT: little to no binding

====

Target entity: GRP94 (Sus scrofa)
Assay summary: [3H]-NECA competitive displacement assay
Type: binding, porcine
Design: GRP94 was purified from porcine pancreas rough microsomes; from tissue; host or cells: porcine pancreas rough microsomes
Condition context: 20 nM [3H]-NECA, nominal (80 μM) Mg2+
Measure name: competition with [3H]-NECA for binding to GRP94 (adenosine ligands)

1) Nc1ncnc2c1ncn2[C@@H]1O[C@H](COP(=O)(O)OP(=O)(O)O)[C@@H](O)[C@H]1O ... effectively competed
2) Nc1ncnc2c1ncn2[C@@H]1O[C@H](COP(=O)(O)OP(=O)(O)OP(=O)(O)O)[C@@H](O)[C@H]1O ... effectively competed
3) Nc1ncnc2c1ncn2[C@@H]1O[C@H](COP(=O)(O)O)[C@@H](O)[C@H]1O ... effectively competed

The reported measurements were obtained from patent US7235649B2.
